Source listed as patent US20240425523A1.

Each record here notes measured Imax (%).
# MEASURED TARGET: p-EGFR L858R (BaF3-L858R cells) (Homo sapiens, UniProt P00533, L858R)
# Construct: host or cells: BaF3
# MEASUREMENT NOTES: Cell p-EGFR inhibition assay, HTRF, BaF3-L858R cells
# Type: cell-based
# EXPERIMENTAL CONTEXT: 16 h treatment, maximum percentage of pEGFR inhibition

# COMPOUND, MEASURED TARGET, Imax (%)
measured = [
    ("COCC1(N2CCN(c3ccc4c(c3)N3CC5CC[C@H](COc6c(cnn6C)-c6cc(cc(C)n6)C(=O)/N=C/3N4)C5)CC2)CCN(c2ccc(C3CCC(=O)NC3=O)nc2C)CC1 (stereo partly drawn) [Example 106]", "p-EGFR L858R (BaF3-L858R cells) (Homo sapiens, UniProt P00533, L858R)", 97.6),
    ("COCCn1nc(C)c2c1OC[C@H]1CC[C@H](C1)CN1/C(=N/C(=O)c3cc(C)nc-2c3)Nc2ccc(N3CCN(C4CCN(c5cc(F)c([C@H]6CCC(=O)NC6=O)c(F)c5)CC4)CC3)cc21 [Example 161]", "p-EGFR L858R (BaF3-L858R cells) (Homo sapiens, UniProt P00533, L858R)", 93.23),
    ("COC[C@H]1CN(c2ccc3c(c2)N2C[C@@H]4CC[C@H](COc5c(c(C)nn5C)-c5cc(cc(C)n5)C(=O)/N=C/2N3)C4)CCN1C1CCN(c2ccc(NC3CCC(=O)NC3=O)cc2C)CC1 (stereo partly drawn) [Example 207]", "p-EGFR L858R (BaF3-L858R cells) (Homo sapiens, UniProt P00533, L858R)", 88.5),
]

* * *

Each record here notes measured DC50.
# MEASURED TARGET: EGFR-L858R/C797S (H1975-clone #8 cells) (Homo sapiens, UniProt P00533, C797S/L858R)
# Construct: expressed in transfected cells; host or cells: H1975 (endogenous EGFR knocked out, clone #8)
# MEASUREMENT NOTES: Cell degradation of EGFR, HTRF assay, H1975-clone#8 (L858R/C797S) cells
# Format: cell-based
# EXPERIMENTAL CONTEXT: 16 h treatment, EGFR degradation
PROPERTY LABEL: DC50

# MOLECULE, OBSERVED VALUE
measured = [
    ("COC[C@H]1CN(c2ccc3c(c2)N2C[C@@H]4CC[C@H](COc5c(cnn5C)-c5cc(cc(C)n5)C(=O)/N=C/2N3)C4)CCN1C1CCN(c2ccc(C3CCC(=O)NC3=O)nc2C)CC1 (some centres unmarked) [Example 65]", "0.87 nM"),
    ("COCC1(N2CCN(c3ccc4c(c3)N3CC5CC[C@H](COc6c(cnn6C)-c6cc(cc(C)n6)C(=O)/N=C/3N4)C5)CC2)CCN(c2ccc(C3CCC(=O)NC3=O)nc2C)CC1 (some centres unmarked) [Example 106]", "2.45 nM"),
    ("COC[C@H]1CN(c2ccc3c(c2)N2C[C@@H]4CC[C@H](COc5c(c(C)nn5C)-c5cc(cc(C)n5)C(=O)/N=C/2N3)C4)CCN1C1CN(C2CCN(c3cc(F)c([C@H]4CCC(=O)NC4=O)c(F)c3)CC2)C1 [Example 206]", "0.54 nM"),
    ("COCCn1nc(C)c2c1OC[C@H]1CC[C@H](C1)CN1/C(=N/C(=O)c3cc(C)nc-2c3)Nc2ccc(N3CCN(C4CCN(c5cc(F)c([C@H]6CCC(=O)NC6=O)c(F)c5)CC4)CC3)cc21 [Example 161]", "2.96 nM"),
    ("CC[C@@H]1CN(c2ccc3c(c2)N2C[C@@H]4CC[C@H](COc5c(c(C)nn5C)-c5cc(cc(C)n5)C(=O)/N=C/2N3)C4)CCN1C1CCN(c2cc(F)c([C@H]3CCC(=O)NC3=O)c(F)c2)CC1 [Example 188]", "3.78 nM"),
]

* * *

# MEASURED TARGET: p-EGFR L858R (BaF3-L858R cells) (Homo sapiens, UniProt P00533, L858R)
# Construct: host or cells: BaF3
# MEASUREMENT NOTES: Cell p-EGFR inhibition assay, HTRF, BaF3-L858R cells
# Format: cell-based
# EXPERIMENTAL CONTEXT: 16 h treatment, maximum percentage of pEGFR inhibition

# MOLECULE, Imax (%)
measured = [
    ("Cc1cc2cc(n1)-c1cnn(C)c1OC[C@H]1CCC(C1)CN1/C(=N/C2=O)Nc2ccc(N3CC4(CCN(C5CN(c6cc(F)c([C@H]7CCC(=O)NC7=O)c(F)c6)C5)CC4)C3)cc21 [Example 126]", 99.16),
    ("COC[C@@H]1CN(c2ccc3c(c2)N2CC4CC[C@H](COc5c(c(C)nn5C)-c5cc(cc(C)n5)C(=O)/N=C/2N3)C4)CCN1C1CCN(c2c(F)cc(NC3CCC(=O)NC3=O)cc2F)CC1 (stereo partly drawn) [Example 133]", 96.88),
    ("COC[C@@H]1CN(c2ccc3c(c2)N2CC4CC[C@H](COc5c(c(C)nn5C)-c5cc(cc(C)n5)C(=O)/N=C/2N3)C4)CCN1CC1CCN(c2cc(F)c([C@H]3CCC(=O)NC3=O)c(F)c2)CC1 [Example 127]", 101.7),
]

* * *

# MEASURED TARGET: p-EGFR L858R (BaF3-L858R cells) (Homo sapiens, UniProt P00533, L858R)
# MEASUREMENT NOTES: Cell p-EGFR inhibition assay, HTRF, BaF3-L858R cells
# EXPERIMENTAL CONTEXT: 16 h treatment, pEGFR inhibition
pIC50: −log10 of the molar value.

# COMPOUND, VALUE RELATION SIGN, pIC50
measured = [
    ("Cc1cc2cc(n1)-c1c(C)nn(C)c1OC[C@H]1CC[C@H](C1)CN1/C(=N/C2=O)Nc2ccc(N3CCN(C4CCN(c5cc(F)c([C@H]6CCC(=O)NC6=O)c(F)c5)CC4)[C@H](C)C3)cc21 [Example 192]", "=", 8.81),
    ("Cc1cc2cc(n1)-c1c(C)nn(C)c1OC[C@H]1CCC(C1)CN1/C(=N/C2=O)Nc2ccc(N3CCN([C@@H]4CCN(c5ccc(C6CCC(=O)NC6=O)nc5C)C[C@@H]4F)CC3)cc21 (stereo partly drawn) [Example 79]", "=", 8.96),
    ("Cc1cc2cc(n1)-c1cnn(C)c1OC[C@H]1CC[C@H](C1)CN1/C(=N/C2=O)Nc2ccc(N3CCN(C4CCN(c5ccc(OC6CCC(=O)NC6=O)nc5C)CC4)CC3)cc21 (stereo partly drawn) [Example 137]", "=", 7.84),
    ("COC[C@H]1CN(c2ccc3c(c2)N2C[C@@H]4CC[C@H](COc5c(cnn5C)-c5cc(cc(C)n5)C(=O)/N=C/2N3)C4)CCN1C1CN(C2CCN(c3cc(F)c([C@H]4CCC(=O)NC4=O)c(F)c3)CC2)C1 [Example 208]", "=", 8.92),
    ("COCC1(N2CCN(c3ccc4c(c3)N3CC5CC[C@H](COc6c(cnn6C)-c6cc(cc(C)n6)C(=O)/N=C/3N4)C5)CC2)CCN(c2ccc(C3CCC(=O)NC3=O)nc2C)CC1 (stereo partly drawn) [Example 106]", "=", 7.80),
    ("Cc1cc2cc(n1)-c1c(C)nn(C)c1OC[C@H]1CC[C@H](C1)CN1/C(=N/C2=O)Nc2ccc(N3CCN(C4CCN(c5cc(F)c([C@H]6CCC(=O)NC6=O)c(F)c5)CC4)C[C@H]3C)cc21 [Example 190]", "=", 9.24),
    ("COC[C@@H]1CN(c2ccc3c(c2)N2C[C@@H]4CC[C@H](COc5c(cnn5C)-c5cc(cc(C)n5)C(=O)/N=C/2N3)C4)CCN1CC1CN(c2ccc3c(c2)C(=O)N(C2CCC(=O)NC2=O)C3=O)C1 (stereo partly drawn) [Example 69]", "=", 8.24),
    ("COC[C@@H]1CN(c2ccc3c(c2)N2CC4CC[C@H](COc5c(c(C(F)F)nn5C)-c5cc(cc(C)n5)C(=O)/N=C/2N3)C4)CCN1C1CCN(c2cc(F)c([C@H]3CCC(=O)NC3=O)c(F)c2)CC1 [Example 85]", "=", 7.94),
    ("Cc1cc2cc(n1)-c1c(C)nn(C)c1OC[C@H]1CC[C@H](C1)CN1/C(=N/C2=O)Nc2ccc(N(C)C3CCN(C4CCN(c5cc(F)c([C@H]6CCC(=O)NC6=O)c(F)c5)CC4)CC3)cc21 [Example 143]", "=", 8.11),
    ("CC[C@H]1CN(c2ccc3c(c2)N2C[C@@H]4CC[C@H](COc5c(c(C)nn5C)-c5cc(cc(C)n5)C(=O)/N=C/2N3)C4)CCN1C1CCN(c2cc(F)c([C@H]3CCC(=O)NC3=O)c(F)c2)CC1 [Example 189]", ">", 9.89),
    ("Cc1cc2cc(n1)-c1cnn(C)c1OC[C@H]1CCC(C1)CN1/C(=N/C2=O)Nc2ccc(N3CCN(C4CCN(c5cc(F)c([C@H]6CCC(=O)NC6=O)c(F)c5)CC4)C[C@@H]3CO)cc21 [Example 94]", "=", 8.21),
    ("Cc1cc2cc(n1)-c1cnn(C)c1OC[C@H]1CC[C@H](C1)CN1/C(=N/C2=O)Nc2ccc(N3CCN(C4CCN(c5ccc(OC6CCC(=O)NC6=O)cc5)CC4)CC3)cc21 (stereo partly drawn) [Example 57]", "=", 7.98),
    ("COC[C@H]1CN(c2ccc3c(c2)N2C[C@@H]4CC[C@H](COc5c(cnn5C)-c5cc(cc(C)n5)C(=O)/N=C/2N3)C4)CCN1C1CCN(c2cc(F)c([C@H]3CCC(=O)NC3=O)c(F)c2)CC1 [Example 64]", "=", 8.49),
    ("Cc1cc2cc(n1)-c1c(C)nn(C)c1OC[C@H]1CCC(C1)CN1/C(=N/C2=O)Nc2ccc(N3CCN(C4CCN(c5cc(F)c([C@H]6CCC(=O)NC6=O)c(F)c5)CC4)[C@@H](C)C3)cc21 [Example 135]", "=", 8.63),
    ("CC[C@@H]1CN(c2ccc3c(c2)N2C[C@@H]4CC[C@H](COc5c(c(C)nn5C)-c5cc(cc(C)n5)C(=O)/N=C/2N3)C4)CCN1C1CCN(c2cc(F)c([C@H]3CCC(=O)NC3=O)c(F)c2)CC1 [Example 188]", ">", 9.89),
    ("Cc1cc2cc(n1)-c1c(C)nn(C)c1OC[C@H]1CC[C@H](C1)CN1/C(=N/C2=O)Nc2ccc(N3C[C@H](C)N(C4CCN(c5cc(F)c([C@H]6CCC(=O)NC6=O)c(F)c5)CC4)C[C@@H]3C)cc21 [Example 197]", "=", 8.04),
    ("COC[C@@H]1CN(c2cc3c(cc2C)N/C2=N\\C(=O)c4cc(C)nc(c4)-c4c(C)nn(C)c4OC[C@H]4CC[C@H](C4)CN23)CCN1C1CCN(c2cc(F)c([C@H]3CCC(=O)NC3=O)c(F)c2)CC1 [Example 173]", "=", 7.94),
    ("COC[C@@H]1CN(c2ccc3c(c2)N2C[C@@H]4CC[C@H](COc5c(cnn5C)-c5cc(cc(C)n5)C(=O)/N=C/2N3)C4)CCN1CC1CN(c2ccc3c(c2)CN(C2CCC(=O)NC2=O)C3=O)C1 (stereo partly drawn) [Example 63]", "=", 9.70),
]
